Each recorded value in this set is attributed to paper PMC6092832.

# System: LPS-stimulated mouse peritoneal macrophages
# Assay type: cell-based
# Measurement Setup: IC50 in combination with AeaeCec3 / IC50 alone
Where no end group is shown, it is not given here.

{"Substance": "RAKFGKKLEKVGKNVFNAAKKALPVVAGYKAL-NH2 [AeaeCec5(2W→2A)]", "FIC": 0.54}
{"Substance": "RWKFGKKLEKVGKNVFNAAKKALPVVAGYKAL-NH2 [AeaeCec5]", "FIC": 0.47}
{"Substance": "GGLKKLGKKLEGAGKRVFNAAEKALPVVAGAKAL-NH2 [AeaeCec2]", "FIC": 0.49}
{"Substance": "GGLKKLGKKLEGAGKRVFNAAEKALPVVAGAKALRK [AeaeCec1]", "FIC": 0.53}
{"Substance": "GGLKKLGKKLEGAGKRVFKASEKALPVVVGIKAI-NH2 [AeaeCec4]", "FIC": 0.52}

----------
# FIC per record follows
# Tested on: LPS-stimulated mouse peritoneal macrophages
# Type: cell-based
# Measurement Setup: IC50 in combination with AeaeCec2 / IC50 alone
Where no end group is shown, it is not given here.

{"Substance": "RWKFGKKLEKVGKNVFNAAKKALPVVAGYKAL-NH2 [AeaeCec5]", "FIC": 0.42}
{"Substance": "GGLKKLGKKLEGVGKRVFKASEKALPVVTGYKAI-NH2 [AeaeCec3]", "FIC": 0.52}
{"Substance": "RAKFGKKLEKVGKNVFNAAKKALPVVAGYKAL-NH2 [AeaeCec5(2W→2A)]", "FIC": 0.57}
{"Substance": "GGLKKLGKKLEGAGKRVFKASEKALPVVVGIKAI-NH2 [AeaeCec4]", "FIC": 0.49}
{"Substance": "GGLKKLGKKLEGAGKRVFNAAEKALPVVAGAKALRK [AeaeCec1]", "FIC": 0.52}
